Origin of values: patent US20260242478A1

target of assay: T1, PSMA Fab (006 PSMA Fab)
T1 construct: also called Anti-PSMA Fab
protocol details: clonal phage supernatant on biotinylated PSMA Fab captured on neutravidin plate, anti-M13-HRP detection;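 also: before phage were added, wells received PSMA antigen in blocking buffer or blocking buffer alone, with no wash in between, followed by a short phage incubation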
Could you please report measured Phage binding ELISA signal, Anti-PSMA Fab for the items listed next?
Give bare numbers.

{"columns": ["binder", "measured value"],
 "data": [
  ["DRVLCTPTWMCEGF [Phage-3917]", 1.01],
  ["AQKLCEPMWMCVGF [Phage-3918]", 1],
  ["QNFHCVPQWMCDWL [Phage-3913]", 1.02]
]}

Shift focus to the following entry.
I would be grateful if you could share the reported Phage binding ELISA signal, Anti-PSMA Fab for ATVRCMPMWMCHGF [Phage-3912] . 1.03
